Values compiled from patent US20240293512A1.

# SUBJECT_OF_TEST: human GCG receptor (human, UniProt P47871 26-477)
# Sequence (P47871 26-477): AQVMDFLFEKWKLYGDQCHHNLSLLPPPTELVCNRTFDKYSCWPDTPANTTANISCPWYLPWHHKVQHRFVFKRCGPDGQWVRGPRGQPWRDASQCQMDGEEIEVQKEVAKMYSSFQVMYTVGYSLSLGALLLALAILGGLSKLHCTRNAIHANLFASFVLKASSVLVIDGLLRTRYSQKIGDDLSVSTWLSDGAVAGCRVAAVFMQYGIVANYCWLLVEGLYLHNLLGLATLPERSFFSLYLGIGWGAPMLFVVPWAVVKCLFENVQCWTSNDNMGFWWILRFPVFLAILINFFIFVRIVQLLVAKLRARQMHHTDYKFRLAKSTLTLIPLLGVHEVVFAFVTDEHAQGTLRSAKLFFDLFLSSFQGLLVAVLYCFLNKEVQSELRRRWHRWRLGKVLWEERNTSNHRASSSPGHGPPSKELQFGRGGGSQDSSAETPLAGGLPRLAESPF
# ASSAY_PROCEDURE: cell-based or functional assay
Bridge positions count the residues as written; N and C are the ends. Square brackets hold non-standard residues; d marks the D form. Ends that are not written are not given here. * marks the point of attachment. Acetyl(2-(4-imidazolyl)) = O=C(Cc1c[nH]cn1)*; Aib = CC(C)(N)C(=O)O
RECORDED_ENDPOINT: In vitro activity compared with native peptide (%) vs Glucagon (cAMP EC50)

# BINDER, INEQUALITY_SYMBOL, VALUE_OBSERVED
records = [
    ("Y[Aib]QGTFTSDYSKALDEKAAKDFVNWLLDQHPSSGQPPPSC (bridge 16-20) [triple agonist of SEQ ID NO: 102]", "=", 29.5),
    ("[Acetyl(2-(4-imidazolyl))]GEGTFTSDLSKYLDSRRQQLFVQWLKAGGPSSGAPPPSHG [triple agonist of SEQ ID NO: 11]", "<", 0.1),
    ("H[Aib]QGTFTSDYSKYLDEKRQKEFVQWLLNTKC (bridge 16-20) [triple agonist of SEQ ID NO: 58]", "=", 2.6),
]
